The reported measurements were obtained from patent US20230279118A1.

# tested_system: T1, canine FcRn (canine)
# T1 construct: Injected in solution as SPR analyte
# assay_name: SPR, pH 5.5, FcRn 100-800 nM over captured Fc
value_type: pKd
Scale note: pKd = -log10(concentration in M).

Here are 5 binders together with their reported answers.
1. canine IgG.B Fc variant N434H with SASA tag (Fc fusion) APEMLGGPSVFIFPPKPKDTLLIARTPEVTCVVVDLDPEDPEVQISWFVDGKQMQTAKTQPREEQFNGTYRVVSVLPIGHQDWLKGKQFTCKVNNKALPSPIERTISKARGQAHQPSVYVLPPSREELSKNTVSLTCLIKDFFPPDIDVEWQSNGQQEPESKYRTTPPQLDEDGSYFLYSKLSVDKSRWQRGDTFICAVMHEALHHHYTQESLSHSPGK: 6.61
2. canine IgG.B Fc YTE variant (L252Y/A254T/T256E) with SASA tag (Fc fusion) APEMLGGPSVFIFPPKPKDTLYITREPEVTCVVVDLDPEDPEVQISWFVDGKQMQTAKTQPREEQFNGTYRVVSVLPIGHQDWLKGKQFTCKVNNKALPSPIERTISKARGQAHQPSVYVLPPSREELSKNTVSLTCLIKDFFPPDIDVEWQSNGQQEPESKYRTTPPQLDEDGSYFLYSKLSVDKSRWQRGDTFICAVMHEALHNHYTQESLSHSPGK: 6.74
3. wild-type canine IgG.B Fc (CH2 and CH3 domains) with upstream SASA tag (Fc fusion) APEMLGGPSVFIFPPKPKDTLLIARTPEVTCVVVDLDPEDPEVQISWFVDGKQMQTAKTQPREEQFNGTYRVVSVLPIGHQDWLKGKQFTCKVNNKALPSPIERTISKARGQAHQPSVYVLPPSREELSKNTVSLTCLIKDFFPPDIDVEWQSNGQQEPESKYRTTPPQLDEDGSYFLYSKLSVDKSRWQRGDTFICAVMHEALHNHYTQESLSHSPGK: 5.50
4. canine IgG.B Fc variant N434R with SASA tag (Fc fusion) APEMLGGPSVFIFPPKPKDTLLIARTPEVTCVVVDLDPEDPEVQISWFVDGKQMQTAKTQPREEQFNGTYRVVSVLPIGHQDWLKGKQFTCKVNNKALPSPIERTISKARGQAHQPSVYVLPPSREELSKNTVSLTCLIKDFFPPDIDVEWQSNGQQEPESKYRTTPPQLDEDGSYFLYSKLSVDKSRWQRGDTFICAVMHEALHRHYTQESLSHSPGK: 6.74
5. canine IgG.B Fc variant N434W with SASA tag (Fc fusion) APEMLGGPSVFIFPPKPKDTLLIARTPEVTCVVVDLDPEDPEVQISWFVDGKQMQTAKTQPREEQFNGTYRVVSVLPIGHQDWLKGKQFTCKVNNKALPSPIERTISKARGQAHQPSVYVLPPSREELSKNTVSLTCLIKDFFPPDIDVEWQSNGQQEPESKYRTTPPQLDEDGSYFLYSKLSVDKSRWQRGDTFICAVMHEALHWHYTQESLSHSPGK: 7.00

What value of measured pKd is listed for canine IgG.B Fc variant L252Y with SASA tag (Fc fusion) APEMLGGPSVFIFPPKPKDTLYIARTPEVTCVVVDLDPEDPEVQISWFVDGKQMQTAKTQPREEQFNGTYRVVSVLPIGHQDWLKGKQFTCKVNNKALPSPIERTISKARGQAHQPSVYVLPPSREELSKNTVSLTCLIKDFFPPDIDVEWQSNGQQEPESKYRTTPPQLDEDGSYFLYSKLSVDKSRWQRGDTFICAVMHEALHNHYTQESLSHSPGK ? 6.76

Which value of pKd has been reported for canine IgG.B Fc variant N434Y with SASA tag (Fc fusion) APEMLGGPSVFIFPPKPKDTLLIARTPEVTCVVVDLDPEDPEVQISWFVDGKQMQTAKTQPREEQFNGTYRVVSVLPIGHQDWLKGKQFTCKVNNKALPSPIERTISKARGQAHQPSVYVLPPSREELSKNTVSLTCLIKDFFPPDIDVEWQSNGQQEPESKYRTTPPQLDEDGSYFLYSKLSVDKSRWQRGDTFICAVMHEALHYHYTQESLSHSPGK in the records? 7.54
